assay: recombinant barcode read abundance after kanamycin selection (control-corrected) (log10(CPM+1)); higher = more efficient recombination; sequences stand for … in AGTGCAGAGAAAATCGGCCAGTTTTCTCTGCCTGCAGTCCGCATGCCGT…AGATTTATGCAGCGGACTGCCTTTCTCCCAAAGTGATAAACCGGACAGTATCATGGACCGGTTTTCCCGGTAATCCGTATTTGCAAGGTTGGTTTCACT; site = the 11-nt target;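 also: IS621 recombinase and bridge RNA in Escherichia coli cells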
Recorded recombinant barcode read abundance (log10) for the following sequences
property-label: recombinant barcode read abundance (log10)

[
  {
    "sequence-string": "ACAGACGCTTGGGTTCTAACCTGTTGCCT (site ACAGGCGCTAG)",
    "val": 0.163
  },
  {
    "sequence-string": "GAAAGTCCTTGGGTTCTAACCTGTTGCCT (site GAAACTCCTAG)",
    "val": 0.0877
  },
  {
    "sequence-string": "AAGCGAACTTGGGTTCTAACCTGTTGCCT (site AAGCGAACTAG)",
    "val": 2.07
  },
  {
    "sequence-string": "AGGTGCTCTTGGGTTCTAACCTGTTGCCT (site ATGTGCTCTAG)",
    "val": 0.107
  },
  {
    "sequence-string": "GGGGTTCCTTGGGTTCTAACCTGTTGCAT (site GGGGTTCCTAT)",
    "val": 2.47
  },
  {
    "sequence-string": "CGTCGGGCTTGGGTTCTAACCTGTTGCAG (site CCTCGGGCTCT)",
    "val": 0.107
  },
  {
    "sequence-string": "CAGGTGACTTGGGTTCTAACCTGTTGCGG (site CAGGTGACTCC)",
    "val": 1.33
  },
  {
    "sequence-string": "GCTGGCCCTTGGGTTCTAACCTGTTGCCT (site GCTGGCCCTAG)",
    "val": 1.18
  },
  {
    "sequence-string": "TTGATATCTTGGGTTCTAACCTGTTGCCT (site TTGAAATCTAG)",
    "val": 0.0834
  },
  {
    "sequence-string": "CTGACTTCTTGGGTTCTAACCTGTTGCCT (site CGGACTTCTAG)",
    "val": 0.079
  },
  {
    "sequence-string": "GTCGTTCCTTGGGTTCTAACCTGTTGCCT (site GTAGTTCCTAG)",
    "val": 0.535
  },
  {
    "sequence-string": "TAGATAACTTGGGTTCTAACCTGTTGCTG (site TAGATAACTCA)",
    "val": 1.02
  },
  {
    "sequence-string": "GCCATGTCTTGGGTTCTAACCTGTTGCCT (site GCCATGTCTAG)",
    "val": 0.502
  },
  {
    "sequence-string": "TAGCGCACTTGGGTTCTAACCTGTTGCGG (site TAGCTCACTCC)",
    "val": 0.13
  },
  {
    "sequence-string": "CCTTGTGCTTGGGTTCTAACCTGTTGCGT (site TAGGTATCTCT)",
    "val": 0.0915
  },
  {
    "sequence-string": "ATGATATCTTGGGTTCTAACCTGTTGCCT (site ACGATATCTAG)",
    "val": 0.43
  },
  {
    "sequence-string": "TACCTAACTTGGGTTCTAACCTGTTGCTT (site TACCTAACTAA)",
    "val": 0.0655
  },
  {
    "sequence-string": "TTCCGCTCTTGGGTTCTAACCTGTTGCCT (site CTCCGCTCTAG)",
    "val": 0.121
  },
  {
    "sequence-string": "GAGCTCACTTGGGTTCTAACCTGTTGCCA (site GAGCTCACTTG)",
    "val": 0.514
  },
  {
    "sequence-string": "AGGCAGACTTGGGTTCTAACCTGTTGCCA (site AGGTAGACTTG)",
    "val": 0.639
  },
  {
    "sequence-string": "TCTGGCCCTTGGGTTCTAACCTGTTGCCT (site CACCCTTCTGA)",
    "val": 0.124
  }
]
